Entries and their measured Ki follow.
Target under test: human recombinant D3 receptor (Homo sapiens (Human), UniProt P35462)
Sequence (P35462 whole entry): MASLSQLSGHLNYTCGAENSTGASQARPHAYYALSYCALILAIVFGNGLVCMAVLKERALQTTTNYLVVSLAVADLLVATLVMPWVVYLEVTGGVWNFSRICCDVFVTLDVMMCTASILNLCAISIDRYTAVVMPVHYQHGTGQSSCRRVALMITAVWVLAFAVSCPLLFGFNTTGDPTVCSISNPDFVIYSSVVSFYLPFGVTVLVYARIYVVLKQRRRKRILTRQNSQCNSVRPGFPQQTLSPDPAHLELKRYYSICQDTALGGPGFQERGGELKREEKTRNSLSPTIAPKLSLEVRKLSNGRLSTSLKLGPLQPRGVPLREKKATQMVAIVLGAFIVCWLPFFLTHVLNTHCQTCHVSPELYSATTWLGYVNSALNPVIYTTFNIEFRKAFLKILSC
Assay details: Test of binding inhibition for dopamine D3 receptor
Condition parameters: Jump-In HEK cell membranes, 2 nM [3H]-Methylspiperone, 120 min at 25° C.; read-out: hD3_Ki
Method: Test Example 1: Test of Binding Inhibition for Dopamine D3 Receptor (Experimental Conditions) Cell membranes: Jump-In HEK cell membranes expressing human recombinant D3 receptor (4 μg/well) […] 225 nL of the solutions of the non-specific ligand or the compounds of the present invention at each concentration (in case of vehicle, final concentration 0.3% DMSO) were added in each well of a 384-well white/clear bottom microplate (3706, Corning). […] The Ki values were calculated from dose-response curves. […]
Please give a number only; it is taken to be in nM.

# example entries with known answers
# Compound, Target under test, Ki, nM
records = [
    ("CCc1cc([C@]23C[C@H]2CN(CC[C@H]2CC[C@H](NC(=O)c4cccnc4C)CC2)C3)no1", "human recombinant D3 receptor (Homo sapiens (Human), UniProt P35462)", 1.4),
    ("Cc1ncc(CC(=O)N[C@H]2CC[C@H](CCN3CCN(c4nocc4C(C)(F)F)CC3)CC2)s1", "human recombinant D3 receptor (Homo sapiens (Human), UniProt P35462)", 0.2),
    ("Cn1cc2c(C(=O)N[C@H]3CC[C@H](CCN4CCC(c5nocc5C(C)(F)F)CC4)CC3)cccc2n1", "human recombinant D3 receptor (Homo sapiens (Human), UniProt P35462)", 0.11),
]

Identify the measured Ki of Cn1cc2c(C(=O)N[C@H]3CC[C@H](CCN4CC5CC5(c5cc(CF)on5)C4)CC3)cccc2n1 (some centres unmarked) for human recombinant D3 receptor (Homo sapiens (Human), UniProt P35462).
1.9

Identify the measured Ki of "Cc1ncc(OCC(=O)N[C@H]2CC[C@H](CCN3C[C@@H]4C[C@]4(c4cc(C5CC5)on4)C3)CC2)cn1" for human recombinant D3 receptor (Homo sapiens (Human), UniProt P35462).
0.45

Identify the measured Ki of "Cn1ncc(CC(=O)N[C@H]2CC[C@H](CCN3C[C@@H]4C[C@]4(c4cc(C(C)(F)F)on4)C3)CC2)n1" for human recombinant D3 receptor (Homo sapiens (Human), UniProt P35462).
0.39

Identify the measured Ki of "O=C(N[C@H]1CC[C@H](CCN2CCC(c3conc3-c3ccccc3)CC2)CC1)c1cccc2ncccc12" for human recombinant D3 receptor (Homo sapiens (Human), UniProt P35462).
1.2

Identify the measured Ki of "CCC(F)(F)c1conc1C1(F)CCN(CC[C@H]2CC[C@H](NC(=O)Cc3cnc(C)s3)CC2)CC1" for human recombinant D3 receptor (Homo sapiens (Human), UniProt P35462).
0.37

Identify the measured Ki of "Cn1ncc(CC(=O)N[C@H]2CC[C@H](CCN3C[C@@H]4C[C@]4(c4cc(C5CC5)on4)C3)CC2)n1" for human recombinant D3 receptor (Homo sapiens (Human), UniProt P35462).
0.71

Identify the measured Ki of Cn1cc2c(C(=O)N[C@H]3CC[C@H](CCN4CCC5(c6nocc6C(C)(F)F)CC5C4)CC3)cccc2n1 (some centres unmarked) for human recombinant D3 receptor (Homo sapiens (Human), UniProt P35462).
4.8

Identify the measured Ki of Cc1cc(C23CC2CN(CC[C@H]2CC[C@H](NC(=O)Cc4cnc(C)s4)CC2)C3)no1 (some centres unmarked) for human recombinant D3 receptor (Homo sapiens (Human), UniProt P35462).
3.8

Identify the measured Ki of "CCc1cc([C@]23C[C@H]2CN(CC[C@H]2CC[C@H](NC(=O)c4cccc5nn(C)cc45)CC2)C3)no1" for human recombinant D3 receptor (Homo sapiens (Human), UniProt P35462).
0.7

Identify the measured Ki of Cn1cc2c(C(=O)N[C@H]3CC[C@H](CCN4CCC5CC5(c5cc(C(C)(F)F)on5)C4)CC3)cccc2n1 (some centres unmarked) for human recombinant D3 receptor (Homo sapiens (Human), UniProt P35462).
2.4

Identify the measured Ki of "CN1Cc2c(C(=O)N[C@H]3CC[C@H](CCN4C[C@@H]5C[C@]5(c5cc(C(C)(F)F)on5)C4)CC3)cccc2C1=O" for human recombinant D3 receptor (Homo sapiens (Human), UniProt P35462).
0.13
